target: JAK-2 enzyme (Homo sapiens, UniProt O60674); assay: JAK2 inhibition assay (radiometric 33P filter assay); format: biochemical; details: 15 μM poly(Glu)4Tyr, 12 μM ATP; read-out: JAK2 inhibition data (Ki)
Sequence (O60674 whole entry, species assumed): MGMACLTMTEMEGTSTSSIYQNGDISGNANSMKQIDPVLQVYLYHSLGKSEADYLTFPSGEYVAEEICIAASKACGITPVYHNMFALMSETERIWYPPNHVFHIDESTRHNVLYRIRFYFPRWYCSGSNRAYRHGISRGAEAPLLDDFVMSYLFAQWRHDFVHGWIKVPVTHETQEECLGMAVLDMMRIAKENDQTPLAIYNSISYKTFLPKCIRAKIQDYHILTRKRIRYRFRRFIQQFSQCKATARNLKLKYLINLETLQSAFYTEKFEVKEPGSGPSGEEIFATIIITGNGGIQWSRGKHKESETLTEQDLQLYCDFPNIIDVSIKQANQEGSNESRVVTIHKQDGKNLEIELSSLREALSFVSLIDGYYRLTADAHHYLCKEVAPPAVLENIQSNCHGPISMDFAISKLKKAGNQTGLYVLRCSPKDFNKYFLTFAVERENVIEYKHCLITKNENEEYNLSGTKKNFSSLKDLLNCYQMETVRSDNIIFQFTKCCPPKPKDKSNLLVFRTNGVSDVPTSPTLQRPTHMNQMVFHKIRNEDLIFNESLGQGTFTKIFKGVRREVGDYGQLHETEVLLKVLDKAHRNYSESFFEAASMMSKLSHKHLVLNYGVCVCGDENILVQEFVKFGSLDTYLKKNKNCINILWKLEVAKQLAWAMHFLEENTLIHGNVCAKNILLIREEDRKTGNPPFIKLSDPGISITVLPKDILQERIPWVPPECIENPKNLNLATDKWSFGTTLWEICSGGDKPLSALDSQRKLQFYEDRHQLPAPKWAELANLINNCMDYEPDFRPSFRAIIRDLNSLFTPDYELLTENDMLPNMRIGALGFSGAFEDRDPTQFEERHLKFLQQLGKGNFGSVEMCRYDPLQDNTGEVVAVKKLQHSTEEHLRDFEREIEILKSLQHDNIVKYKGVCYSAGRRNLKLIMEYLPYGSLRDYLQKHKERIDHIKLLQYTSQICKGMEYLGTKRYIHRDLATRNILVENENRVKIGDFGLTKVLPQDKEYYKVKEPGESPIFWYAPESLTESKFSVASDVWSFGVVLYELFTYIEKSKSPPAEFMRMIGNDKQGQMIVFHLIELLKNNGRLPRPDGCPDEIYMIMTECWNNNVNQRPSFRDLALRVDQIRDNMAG
Ki for assorted molecules

Recorded results for 4 molecules are shown here.
- Molecule: "CCCOC(=O)Nc1ccc(Nc2nc(N)n(-c3ccnc(N4CCCN(C(C)=O)CC4)c3)n2)cc1"
  Ki: "50 to 500 nM"
- Molecule: "CC(=O)N1[C@H](C)CN(c2cc(-n3nc(Nc4ccc(N5CCN(C(=O)OCC(C)C)CC5)cc4)nc3N)ccn2)C[C@@H]1C"
  Ki: "< 50 nM"
- Molecule: "CCCOC(=O)N1CCCN(c2cc(-n3nc(Nc4ccc(N5CCN(S(=O)(=O)CC)CC5)cc4)nc3N)ccn2)CC1"
  Ki: "50 to 500 nM"
- Molecule: "CC(=O)N1CCCN(c2cc(-n3nc(Nc4ccc(NC(=O)c5ccncc5)cc4)nc3N)ncn2)CC1"
  Ki: "< 50 nM"

Enquiry: Answer with the recorded Ki of "CC(=O)N1[C@H](C)CN(c2cc(-n3nc(Nc4ccc(N5CCN(C(=O)NC6CCCCC6)CC5)cc4)nc3N)ncn2)C[C@@H]1C" only.
Return: < 50 nM

Enquiry: Supply recorded Ki for "CCOC(=O)N1CCCN(c2cc(-n3nc(Nc4ccc(N5CCN(C(=O)OC(C)C)CC5)cc4)nc3N)ccn2)CC1" here.
Return: 50 to 500 nM

Enquiry: Provide only the value of recorded Ki for "CCCOC(=O)N1CCN(c2ccc(Nc3nc(N)n(-c4ccnc(N5CCCN(S(=O)(=O)C(C)C)CC5)c4)n3)cc2)CC1"
Return: 50 to 500 nM

Enquiry: Given the molecule "CCN(CC)c1ccc(Nc2nc(N)n(-c3cc(N4CCCN(C(C)=O)CC4)ncn3)n2)cc1" , write its reported Ki.
Return: < 50 nM

Enquiry: Specify reported Ki for the molecule shown: CCOC(=O)N1CCN(c2ccc(Nc3nc(N)n(-c4cc(N5CCC6CCC(C5)N6C)ncn4)n3)cc2)CC1 (stereo not shown)
Return: < 50 nM

Enquiry: Determine its reported Ki: "CCCOC(=O)N1CCN(c2ccc(Nc3nc(N)n(-c4ccnc(N5CCCN(S(C)(=O)=O)CC5)c4)n3)cc2)CC1"
Return: 50 to 500 nM

Values compiled from patent US7329652B2.
